- studySystem: hERG ion channel (Homo sapiens, UniProt Q12809)
- Sequence (Q12809 whole entry): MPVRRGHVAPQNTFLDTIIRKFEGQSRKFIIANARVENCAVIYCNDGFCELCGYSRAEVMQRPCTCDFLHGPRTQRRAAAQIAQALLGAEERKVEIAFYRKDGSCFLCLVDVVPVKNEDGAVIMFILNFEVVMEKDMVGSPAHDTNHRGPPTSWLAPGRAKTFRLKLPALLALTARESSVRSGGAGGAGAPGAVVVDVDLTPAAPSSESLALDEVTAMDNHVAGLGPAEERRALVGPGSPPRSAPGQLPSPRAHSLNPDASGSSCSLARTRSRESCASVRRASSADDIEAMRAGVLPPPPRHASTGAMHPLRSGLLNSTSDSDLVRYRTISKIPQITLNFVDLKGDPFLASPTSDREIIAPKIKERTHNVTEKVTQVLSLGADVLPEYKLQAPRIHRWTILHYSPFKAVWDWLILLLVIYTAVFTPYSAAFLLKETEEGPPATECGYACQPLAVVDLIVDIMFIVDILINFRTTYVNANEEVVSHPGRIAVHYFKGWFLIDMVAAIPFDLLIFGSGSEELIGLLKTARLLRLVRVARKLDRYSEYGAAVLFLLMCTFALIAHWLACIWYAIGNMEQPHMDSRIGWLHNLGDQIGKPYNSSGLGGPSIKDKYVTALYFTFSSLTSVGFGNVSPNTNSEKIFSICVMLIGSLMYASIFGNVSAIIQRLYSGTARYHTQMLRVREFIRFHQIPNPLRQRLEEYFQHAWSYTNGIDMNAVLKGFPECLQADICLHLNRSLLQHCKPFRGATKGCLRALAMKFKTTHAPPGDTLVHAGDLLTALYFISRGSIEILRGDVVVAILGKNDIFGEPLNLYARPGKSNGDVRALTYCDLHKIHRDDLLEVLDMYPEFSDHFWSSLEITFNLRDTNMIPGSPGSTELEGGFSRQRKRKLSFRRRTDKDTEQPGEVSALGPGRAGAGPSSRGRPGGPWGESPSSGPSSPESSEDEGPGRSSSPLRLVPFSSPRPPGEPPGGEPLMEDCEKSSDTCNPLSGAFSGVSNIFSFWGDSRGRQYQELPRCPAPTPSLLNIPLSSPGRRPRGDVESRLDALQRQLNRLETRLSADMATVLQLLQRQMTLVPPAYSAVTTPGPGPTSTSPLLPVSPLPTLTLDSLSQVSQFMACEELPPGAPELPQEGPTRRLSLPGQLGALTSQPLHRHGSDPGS
- procedureText: hERG ion channel block, patch clamp assay
- measurementConditions: read-out: (EC50), μM for stimulation of hERG channel activity; patch clamp; Table 8
observedProperty: EC50 (µM)
Express it in µM; write the number only.

Asked: Entry O=C(O)c1cc(-c2ccc([C@@H]3C[C@@H]4C[C@H]3C(=O)N4)cc2)c2ccc(-c3ccc(C(F)(F)F)cc3)cc2c1 : reported EC50 = ?
Given back: 18.1

* * *

- procedureText: Microsomal stability, human
- measurementConditions: liver microsomes
observedProperty: half-life (h)
Express it in h; write the number only.

Asked: Entry O=C(O)c1cc(-c2ccc([C@@H]3C[C@@H]4C[C@H]3NC4=O)cc2)c2ccc(-c3ccc(C(F)(F)F)cc3)cc2c1 : reported half-life = ?
Given back: 14.2

// data source = patent US20240150290A1
